target: Bacillus anthracis lethal factor (Bacillus anthracis)
Sequence (P15917 34-809 limits assumed): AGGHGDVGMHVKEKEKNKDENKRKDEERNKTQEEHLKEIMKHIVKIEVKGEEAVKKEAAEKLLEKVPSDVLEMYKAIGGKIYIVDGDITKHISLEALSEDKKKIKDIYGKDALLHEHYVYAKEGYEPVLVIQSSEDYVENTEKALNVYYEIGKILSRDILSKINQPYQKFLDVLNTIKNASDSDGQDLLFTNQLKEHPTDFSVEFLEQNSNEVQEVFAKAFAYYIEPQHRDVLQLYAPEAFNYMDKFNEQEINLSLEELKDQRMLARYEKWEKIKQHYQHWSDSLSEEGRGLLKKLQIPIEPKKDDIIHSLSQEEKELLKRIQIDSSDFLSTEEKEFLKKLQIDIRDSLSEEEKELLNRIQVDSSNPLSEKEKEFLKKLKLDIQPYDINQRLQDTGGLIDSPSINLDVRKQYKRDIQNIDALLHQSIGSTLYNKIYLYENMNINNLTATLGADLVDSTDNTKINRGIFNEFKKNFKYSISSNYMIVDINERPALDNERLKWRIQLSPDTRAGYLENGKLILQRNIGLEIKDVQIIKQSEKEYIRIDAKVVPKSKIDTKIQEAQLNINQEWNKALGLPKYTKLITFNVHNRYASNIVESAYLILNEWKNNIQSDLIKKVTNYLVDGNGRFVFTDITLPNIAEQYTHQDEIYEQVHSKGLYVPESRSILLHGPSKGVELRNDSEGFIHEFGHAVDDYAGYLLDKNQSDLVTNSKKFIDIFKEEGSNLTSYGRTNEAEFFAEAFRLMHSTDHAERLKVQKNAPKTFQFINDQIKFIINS
measured.property: pIC50
Friendly reminder that pIC50 comes from taking -log10 of the concentration in mol/L.

Please give the measured pIC50 for this compound: `Cc1cc(S(=O)(=O)N[C@@H](C(=O)NO)C(C)C)ccc1F`
6.89

Where these numbers come from: patent US20100003276A1
